Kindly state pKd for each of the entries shown.
target: RSV prefusion F (preF), DS-Cav1 (Respiratory syncytial virus, UniProt P03420 26-513); test: BLI, IgG on anti-human IgG sensor, 100 nM antigen
One number for each entry, as −log10 of the molar value.

Binder	pKd
ADI-41558 (antibody, V domains shown, also called Ab 840; Antibody Number 840) VH: EVQLLESGGGLVKPGGSLRLSCEVSGFPFSDYYVSWIRQAPGKGLEWLSYSSRGGIYTNYADSVKGRFTISRDNDKNSLFLQMNSLRAEDTAVYYCARDRSDIWSGRVGFDYWGQGTLVTVSS VL: DIVMTQSPATLSLSPGERATLSCRASQSVSSSYLAWYQQKPGQAPRLLIYGASSRATGIPDRFSGSGSGTDFTLTISRLEPEDFAVYYCQQYNKSPPGYIFGPGTKVDIK	8.52

Query binder follows.
I am curious: what pKd value has been reported for ADI-36678 (antibody, V domains shown) VH: EVQLVQSGGGLVQPGGSLRVSCAASGLTVSTNYMSWVRQLPGKGLEWVSVIYSGGNTYYADSVKGRFTISRDNSKNIVYLEMNSLRIEDTAVYYCARAHLNNWFVSVTDTKDYYFDYWGQGTLVTVSS VL: SYELTQPPSVSVLPGQTASITCSGDKLGDKYASWYQQKPGQSPILVVFQDDKRPSGIPERFSGSNSGNTATLTISGTQATDEADYYCQACDRNTGVFGTGTKLTVL ? 9.14
